- experimental target: human recombinant melanocortin-3 receptor (hMC3-R) (human) (UniProt P41968)
- Sequence (P41968 whole entry): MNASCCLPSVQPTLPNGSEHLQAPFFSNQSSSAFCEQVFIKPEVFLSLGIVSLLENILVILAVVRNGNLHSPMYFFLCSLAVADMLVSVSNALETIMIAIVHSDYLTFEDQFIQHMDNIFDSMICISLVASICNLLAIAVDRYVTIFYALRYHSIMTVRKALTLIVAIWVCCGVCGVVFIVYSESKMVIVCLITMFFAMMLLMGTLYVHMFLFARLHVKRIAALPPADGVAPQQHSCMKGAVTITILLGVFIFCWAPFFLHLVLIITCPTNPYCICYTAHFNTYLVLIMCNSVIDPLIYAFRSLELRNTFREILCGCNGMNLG
- assay remarks: competitive binding against labelled NDP-α-MSH (I125 or Eu), HEK-293 hMC3-R membranes
Bridge positions count the residues as written; N and C are the ends. Square brackets hold non-standard residues; d marks the D form. Orn = NCCC[C@H](N)C(=O)O; Dab = NCC[C@H](N)C(=O)O
Listing of recorded Ki by entry.
Please respond with the number in nM and leave the unit unwritten.

binder	endpoint	result number
Ac-RE[Dab][dF]RW[Orn]-OH (lactam 2-7; also: acetate and TFA salts) [cyclic peptide of Example 8.4, Ac-Arg-cyclo(Glu-Dab-D-Phe-Arg-Trp-Orn)-OH]	Ki	410

Recorded result, Ac-RE[Dab][dF]RW[Orn]-NH2 (lactam 2-7; also: TFA salt) [cyclic peptide of Example 8.3, Ac-Arg-cyclo(Glu-Dab-D-Phe-Arg-Trp-Orn)-NH2] , Ki: 74
